# STUDY_TARGET: SHP2-C SH2;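 also: peptide library displayed on the E. coli surface as eCPX fusions, selected cells deep-sequenced, score is each peptide's frequency after selection divided by its frequency in the input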
# EXPERIMENT_DESCRIPTION: SH2 binding enrichment of the phosphorylated peptide, bacterial display (enrichment ratio); higher = better substrate or ligand; peptides without Tyr show the background
Consider the following sequences and their measured SH2 binding enrichment readings.

Entry ERRLIYASDPK [VPS13D_Y864_T865A] , SH2 binding enrichment reported as 0.589

Noted for GDFFRSLAEVA [YWHAG_Y133_Y133S_YF] : its SH2 binding enrichment reads 0.696

The measured SH2 binding enrichment associated with RAHARYCADAC [ACOT4_Y52_R57C] reads 0.898

Value of measured SH2 binding enrichment for the entry NTGVYYDLYGG [PTPN11_Y63_D61V] : 0.644

# SH2 binding enrichment (sequence: FTHSDYQFGQR [PKP2_Y166_S169G_YF] ) is 1.05

The sequence listed as ETALHYIHDGI [GATD3A_Y250] shows SH2 binding enrichment equal to 1.03

The sequence YPSLPYSPVSS [CAMKK2_Y128_C123Y] showed SH2 binding enrichment equal to 1.01

Item: VDHFGYTKDDK [APOB_Y740] | SH2 binding enrichment: 0.95

So, SGVSYYINLCQ [IGF2R_Y2025_N2020S] ? Its SH2 binding enrichment was 0.642

// SAPDSYIRIGN [SLC38A4_Y27_G29R] : SH2 binding enrichment value = 0.757

KRGIDYILWHM [FRMD1_Y225_R228W] yielded SH2 binding enrichment of 1.5

Entry GEDLSYGDLPP [IRS1_Y151_V154L] ; SH2 binding enrichment = 0.788

SH2 binding enrichment reading for SSQTVYQRVEG [TFR2_Y23] : 2.4

The values you see were collected from the supplement of paper PMC10065799.
